# Tested on: HOP-92
# assay-summary: NCI tumour cell line growth inhibition, 48 h
Activity calls are given as the source filed them. No stated cut-off is given here; in the data, active = GI50 up to about 1.1 µM and inactive = higher.
Hi there, I'd appreciate the recorded GI50 for every entry that follows.

Worked examples follow.
CCOC(=O)C1=CC(C)(C(=O)OCC)Nc2c(nc(SC)n(C)c2=O)N1 (configuration not stated); > 10 µM (inactive)
CN1C(=O)C(=O)c2cc3c(c4c2c1cc1ccccc14)OCO3; > 100 µM (inactive)
CCCCc1c2c(nc3c1CCCC3=O)C(=O)CCC2; > 100 µM (inactive)
C=C[C@@]1(O)CCCC2=C(C(=O)OCC)CC[C@]21C; > 100 µM (inactive)
Cc1ccc(C(=O)C2=CN=C3C(=O)N(c4ccccc4)N(C)C3(C)C2=N)cc1 (configuration not stated); > 100 µM (inactive)
COC(=O)c1cc(-c2ccc(OC)c(OC)c2)oc1-c1ccc(OC)c(OC)c1; 13.4 µM (inactive)

Consider the additional compound presented here.
The value of GI50 measured for the compound S=C(Nc1ccccc1)N(Cc1ccccc1)c1ccccc1 turned out to be 29.9 µM (inactive)

====

# Test system: SF-295
# assay-summary: NCI tumour cell line growth inhibition, 48 h
Active and inactive are the calls of the source. Rule as the data show it: active = GI50 up to about 1.1 µM and inactive = higher.
Hi there, I'd appreciate the recorded GI50 for every entry that follows.

Worked examples follow.
CN(Cc1ccccc1)/C(=N\C#N)N(Cc1ccccc1)Cc1ccccc1; 14.1 µM (inactive)
FC(F)(F)C1(C(F)(F)F)OC(Cl)(Cl)C(Cl)(Cl)O1; > 10 µM (inactive)
O=C(CC(C(=O)O)N1CCOCC1)c1ccccc1 (stereo not drawn); 41.2 µM (inactive)
CC1CCN(CC(=O)N2c3ccccc3Sc3cc4ccccc4cc32)CC1; > 100 µM (inactive)
O=C1Cc2c([nH]c3c(Cl)cccc23)-c2ccccc2N1; > 100 µM (inactive)
CC(=O)c1c(SCCN2CCCCCC2)n(-c2ccccc2)c(=S)n(-c2ccccc2)c1=O; 35.9 µM (inactive)

Report GI50 for each item below.
1. CC1(C)OC2C(CO)OC(n3ccc(N)nc3=O)C2O1 (stereo not drawn)
2. CN(C)CCCN1c2ccccc2Sc2cnccc21
3. CCC(C#N)NC(=O)NC(C#N)CC (stereo not drawn)
4. N#C/C(=C\c1ccc(CP(=O)(O)O)cc1)C(N)=O

Given back:
1. > 100 µM (inactive)
2. 35.1 µM (inactive)
3. > 100 µM (inactive)
4. > 100 µM (inactive)

Report GI50 for each item below.
1. Cn1c2ccccc2c(=NNc2ccc(S(N)(=O)=O)cc2)c2ccccc21
2. C=CCCC(CCC=C)(C(=O)O)C(=O)O

Given back:
13.6 µM (inactive)
> 100 µM (inactive)

The value of GI50 measured for the molecule O=C(O)c1nnsc1-c1csnn1 turned out to be > 100 µM (inactive)

====

# System: UACC-257
# assay-summary: NCI tumour cell line growth inhibition, 48 h
The source made the active and inactive calls. Cut-off read from the data, not from the text of the source: active = GI50 up to about 1.1 µM and inactive = higher.
Write down one outcome, taken from active, inactive

Solved entries:
C=C1CC(Cn2cc(C)c(=O)[nH]c2=O)(c2ccc(Cl)cc2)OC1=O (stereo not given); inactive
CC(C)(C)OC(=O)NC1CCCC1C(=O)C1=CCCC1 (stereo not given); inactive
CC(/C=C/C=C/C=C/C=C/C=C/C(=O)C1=C(O)C(CCC(=O)O)N(C)C1=O)=C\C(C)C(OC1CC(O)C(O)C(C)O1)C(C)C (stereo not given); inactive
Cc1cn([C@H]2C[C@](C)(CO)N(C)O2)c(=O)[nH]c1=O; inactive
O=C1c2ccccc2C(=O)N1CCCOCc1cnc(O)nc1O; inactive

Asked: For CCOP(=O)(OCC)C(Nc1ccc(Br)cc1)c1cccc([N+](=O)[O-])c1 (stereo not given) , what call appears in the results of this test?
Given back: inactive

All figures here come from ChEMBL document CHEMBL1201862.
